- subject-of-test: hSCN3A (Homo sapiens)
- Construct: expressed in transfected cells
- Sequence (Q9NY46 whole entry): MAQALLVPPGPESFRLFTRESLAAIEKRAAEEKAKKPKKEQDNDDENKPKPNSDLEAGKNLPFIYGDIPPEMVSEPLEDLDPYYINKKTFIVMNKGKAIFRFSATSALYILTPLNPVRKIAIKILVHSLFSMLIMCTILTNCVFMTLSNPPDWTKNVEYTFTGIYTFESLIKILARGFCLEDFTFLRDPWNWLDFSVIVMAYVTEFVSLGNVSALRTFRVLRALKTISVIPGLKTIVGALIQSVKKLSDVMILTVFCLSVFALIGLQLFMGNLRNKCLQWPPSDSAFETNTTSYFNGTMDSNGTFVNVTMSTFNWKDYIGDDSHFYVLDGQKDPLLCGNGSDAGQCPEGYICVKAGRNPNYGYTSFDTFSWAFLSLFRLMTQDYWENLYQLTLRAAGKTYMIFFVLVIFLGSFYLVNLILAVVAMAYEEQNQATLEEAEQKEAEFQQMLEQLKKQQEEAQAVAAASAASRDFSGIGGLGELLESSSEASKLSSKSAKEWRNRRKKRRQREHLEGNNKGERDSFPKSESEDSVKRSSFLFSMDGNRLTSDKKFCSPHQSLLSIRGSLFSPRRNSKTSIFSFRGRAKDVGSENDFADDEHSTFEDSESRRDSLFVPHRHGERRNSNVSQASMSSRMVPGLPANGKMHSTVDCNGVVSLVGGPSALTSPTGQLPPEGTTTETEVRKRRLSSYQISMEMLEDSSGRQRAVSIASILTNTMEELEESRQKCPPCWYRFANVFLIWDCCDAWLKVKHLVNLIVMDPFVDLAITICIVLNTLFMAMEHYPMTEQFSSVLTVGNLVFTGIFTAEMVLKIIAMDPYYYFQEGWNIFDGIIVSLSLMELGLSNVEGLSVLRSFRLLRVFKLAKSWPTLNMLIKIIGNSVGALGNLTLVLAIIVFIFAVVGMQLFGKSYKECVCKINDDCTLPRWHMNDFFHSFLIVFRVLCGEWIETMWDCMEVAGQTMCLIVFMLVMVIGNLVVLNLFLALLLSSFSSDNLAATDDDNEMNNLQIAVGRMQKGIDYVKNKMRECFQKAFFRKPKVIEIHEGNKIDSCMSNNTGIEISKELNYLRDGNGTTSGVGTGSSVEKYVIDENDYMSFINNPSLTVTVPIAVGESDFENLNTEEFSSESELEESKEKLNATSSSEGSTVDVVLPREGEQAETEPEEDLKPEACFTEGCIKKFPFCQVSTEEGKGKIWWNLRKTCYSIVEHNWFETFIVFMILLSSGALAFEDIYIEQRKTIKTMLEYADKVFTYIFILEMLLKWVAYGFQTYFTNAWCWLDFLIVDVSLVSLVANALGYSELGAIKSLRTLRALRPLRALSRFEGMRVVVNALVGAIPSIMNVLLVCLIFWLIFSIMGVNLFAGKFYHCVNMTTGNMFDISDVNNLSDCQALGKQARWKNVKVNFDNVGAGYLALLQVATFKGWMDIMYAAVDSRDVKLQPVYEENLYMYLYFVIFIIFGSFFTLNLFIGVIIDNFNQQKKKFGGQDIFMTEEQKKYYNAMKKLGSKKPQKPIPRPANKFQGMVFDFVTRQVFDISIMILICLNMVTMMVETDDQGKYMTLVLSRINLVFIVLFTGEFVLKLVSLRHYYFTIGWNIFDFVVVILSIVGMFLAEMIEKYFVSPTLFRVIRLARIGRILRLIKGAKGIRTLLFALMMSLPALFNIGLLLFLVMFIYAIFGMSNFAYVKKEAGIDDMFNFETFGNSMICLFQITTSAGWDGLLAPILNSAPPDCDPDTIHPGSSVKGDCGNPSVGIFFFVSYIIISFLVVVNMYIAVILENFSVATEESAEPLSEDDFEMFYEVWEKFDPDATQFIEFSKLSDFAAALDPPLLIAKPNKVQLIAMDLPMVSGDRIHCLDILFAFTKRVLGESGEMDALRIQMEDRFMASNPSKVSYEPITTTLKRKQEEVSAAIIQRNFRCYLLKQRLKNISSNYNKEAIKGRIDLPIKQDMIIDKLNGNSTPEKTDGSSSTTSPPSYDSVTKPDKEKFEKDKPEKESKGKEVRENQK
- test-name: Whole-cell patch-clamp electrophysiology (conventional or PatchXpress), HEK cells expressing hSCN3A, estimated IC-50
- Assay type: cell-based
- condition-info: estimated IC-50, HEK cells expressing hSCN3A; class symbols or bounds; read-out: SCN3A EIC-50
IC50 values by entry

Q) Using the record for O=S(=O)(Nc1nccs1)c1ccc(Nc2nc(C(F)(F)F)cs2)cc1 , state its measured IC50.
A) < 2 µM

Q) Using the record for O=S(=O)(Nc1nccs1)c1ccc(Nc2nccc(OCc3ccc(C(F)(F)F)cc3)n2)cc1 , state its measured IC50.
A) < 2 µM

Q) Using the record for COc1ccnc(Nc2ccc(S(=O)(=O)Nc3nccs3)cc2)n1 , state its measured IC50.
A) > 1 µM

Q) Using the record for O=S(=O)(Nc1nccs1)c1ccc(Nc2nc(CNC(c3ccccc3)c3ccccc3)cs2)cc1 , state its measured IC50.
A) < 2 µM
